- ASSAY_TARGET: von Willebrand factor A1 domain (Homo sapiens, UniProt P04275 SEQ:13-246)
- Sequence (P04275 1238-1471 T1381A): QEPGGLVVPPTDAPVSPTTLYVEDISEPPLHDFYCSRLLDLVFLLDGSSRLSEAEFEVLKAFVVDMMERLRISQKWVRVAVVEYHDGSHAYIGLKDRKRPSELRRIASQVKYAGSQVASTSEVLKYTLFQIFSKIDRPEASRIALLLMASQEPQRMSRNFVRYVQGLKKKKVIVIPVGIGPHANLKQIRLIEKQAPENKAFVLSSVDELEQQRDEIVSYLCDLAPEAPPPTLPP
- PROCEDURE_DETAILS: filter; DPBS, 0.1 mg/mL BSA, 24 C
- RUN_CONDITIONS: label: 5'-32P
# maps each entry to its Kd
Express it in nM; write the number only.

Some entries whose results are on file:
| BINDER | UNIT_SYMBOL | Kd |
| --- | --- | --- |
| AMX201.G9 (ssRNA, 2'-F pyrimidines) RNA: GGAGCGCACUCAGCCACUAACGGCUGAUCUCAGGACUAAAUAGUCAACAAGGAUGCGUUUCGACCUCUCUGCUAGC | nM | 182 |
| AMX198.E5 (ssRNA, 2'-F pyrimidines) RNA: GGAGCGCACUCAGCCACUUCGACUUUCAUGUCUGAAGUCCCUGCAGUGCGAGAGACGUUUCGACCUCUCUGCUAGC | nM | 172 |
| AMX201.H3 (ssRNA, 2'-F pyrimidines) RNA: GGAGCGCACUCAGCCACUAACGGUUGAUCUCAGGACUAAAUAGUCAACAAGGAUGCGUUUCGACCUCUCUGCUAGC | nM | 90 |
| AMX201.H1 (ssRNA, 2'-F pyrimidines) RNA: GGAGCGCACUCAGCCACUUUACGGUGAAAGUCUCUCGGGGUUCCGAGUUACGGUGCGUUUCGACCUCUCUGCUAGC | nM | 189 |
| AMX198.G1 (ssRNA, 2'-F pyrimidines) RNA: GGAGCGCACUCAGCCACAACACUAAUGGGGAAAGUUCAAGGAUUCUUGACCGGUGCGUUUCGACCUCUCUGCUAGC | nM | 45 |
| AMX198.A10 (ssRNA, 2'-F pyrimidines) RNA: GGAGCGCACUCAGCCACCAGUUAUGCUGGCUUUGGUCUUUGACUGUCUGAGUGUUCGUUUCGACCUCUCUGCUAGC | nM | 1860 |

Now take the following binder into account.
GET /values?readout=Kd&item= AMX201.G1 (ssRNA, 2'-F pyrimidines) RNA: GGAGCGCACUCAGCCACGCUCGGUGGGGAAAUUUUAGCCUAAUUGGCUACUUGUGCGUUUCGACCUCUCUGCUAGC
190
